Overview of reported % IL-10 Induction, IP 300 across a group of compounds:
- Test system: IL-10
- experimentalDetails: Increasing levels of IL-10 in mice (plasma ELISA)
- Assay type: in vivo
- setupConditions: IP, 300 μg per mouse; mouse plasma, 90 or 105 minutes
- Experimental: Isoquinoline compounds were administered intraperitoneally to mice in doses of 30, 100 or 300 μg/mouse or orally in doses of 300 or 600 μg/mouse. Levels of IL-10 were measured 90 or 105 minutes after administration as indicated. Samples were collected and diluted, when appropriate, as described in Example VI. […] Plates were washed and incubated with streptavidin-HRP 30 min at 37° C., and HRP activity was detected with hydrogen peroxide and TMB using standard immunoassay procedures.
attributeMeasured: % IL-10 Induction, IP 300 (%)

> print(dat)
                                   compound          attributemeasured  unitannotation  readoutvalue
1  CCNc1ccc(C2C(CNC3CCCC3)c3ccccc3CN2CCCCC(CN)NC)cc1 (stereo not shown)  % IL-10 Induction, IP 300               %            29
2  CCCOc1ccc(C2C(CNC3CCCCC3)c3ccccc3CN2CCCCC(CN)NC)cc1 (stereo not shown)  % IL-10 Induction, IP 300               %           325
3  CNC(CN)CCCCN1Cc2ccccc2C(CNC2CCCCC2)C1c1ccc(C(F)(F)F)cc1 (stereo not shown)  % IL-10 Induction, IP 300               %           118
4  CNC(CN)CCCCN1Cc2ccccc2C(CNC2CCCCC2)C1c1ccc(Cl)cc1Cl (stereo not shown)  % IL-10 Induction, IP 300               %           109

###

- targetSystem: MCR-1 (Homo sapiens)
- Construct: expressed in transfected cells; host or cells: HEK 293
- Sequence (Q01726 whole entry): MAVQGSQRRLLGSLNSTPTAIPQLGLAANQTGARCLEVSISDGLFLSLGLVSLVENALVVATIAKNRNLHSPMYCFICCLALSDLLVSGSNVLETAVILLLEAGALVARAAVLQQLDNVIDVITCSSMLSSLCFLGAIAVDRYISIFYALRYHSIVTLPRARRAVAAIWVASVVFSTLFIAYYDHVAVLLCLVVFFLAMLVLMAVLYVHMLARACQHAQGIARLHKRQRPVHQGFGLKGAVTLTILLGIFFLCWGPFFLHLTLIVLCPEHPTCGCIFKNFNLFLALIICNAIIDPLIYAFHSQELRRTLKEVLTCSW
- experimentalDetails: Melanocortin receptor binding assay, competition with 125I-HP 467, HEK 293 cells expressing hMCR-1
- setupConditions: TRG 2408 and TRG 2409 libraries; inhibition of 125I-HP 467 binding; read-out: MC-1 IC50
attributeMeasured: log10 of IC50 (log10 of the value in nM)

> print(dat)
                                    molecule          targetsystem  readoutvalue
 1  CCNc1ccc(C2C(CNC3CCCCC3)c3ccccc3CN2CCC(CN)NCCN)cc1 (stereo not shown)  MCR-1 (Homo sapiens)          3.60
 2  NC[C@H](N)CCCCN1Cc2ccccc2C(CNC2CCCCC2)C1c1ccc(Cl)cc1Cl (stereo partly shown)  MCR-1 (Homo sapiens)          3.01
 3  CCNc1ccc(C2C(CNC3CCCCC3)c3ccccc3CN2CCCCC(CN)NCCc2ccccc2)cc1 (stereo not shown)  MCR-1 (Homo sapiens)          3.06
 4  CCNc1ccc(C2C(CNC3CCCCC3)c3ccccc3CN2CCCCC(CN)NCCNC)cc1 (stereo not shown) [TRG 2408-8]  MCR-1 (Homo sapiens)          3.36
 5  NCC(N)CCN1Cc2ccccc2C(CNC2CCCCC2)C1c1ccc(-c2ccccc2)cc1 (mixture of isomers)  MCR-1 (Homo sapiens)          3.88
 6  CCNc1ccc(C2C(CNC3CCCCC3)c3ccccc3CN2CCCC(CN)NC)cc1 (stereo not shown)  MCR-1 (Homo sapiens)          2.84
 7  NCC(N)CCCCN1Cc2ccccc2C(CNC2CCCCC2)C1c1ccc(-c2ccccc2)cc1 (stereo not shown)  MCR-1 (Homo sapiens)          3.24
 8  CNCCNC(CN)CCCN1Cc2ccccc2C(CNC2CCCCC2)C1c1ccc(-c2ccccc2)cc1 (stereo not shown)  MCR-1 (Homo sapiens)          3.40
 9  CCNc1ccc(C2C(CNC3CCCCC3)c3ccccc3CN2CCCC[C@@H](CN)NCCc2ccccc2)cc1 (stereo partly shown)  MCR-1 (Homo sapiens)          2.79
10  NC[C@H](N)CCCCN1Cc2ccccc2C(CNC2CCCCC2)C1c1ccc(-c2ccccc2)cc1 (stereo partly shown)  MCR-1 (Homo sapiens)          3.50
